Plant response rating: Field Poppy values, listed per item
Tested on: field poppy (Papaver rhoeas)
Assay: Test D pre-/postemergence: field poppy
Format: in vivo
Conditions: Postemergence, 31 g ai/ha; scale 0 to 100 (0 no effect, 100 complete control)
Returns: the value as a bare number; no unit string appended.

compound="Cc1nn(-c2ccc(F)c(C(F)(F)F)c2)nc1Cc1ccnc(C(F)(F)F)c1 [Compound 156]" datavalue=100

In: What reported Plant response rating: Field Poppy corresponds to CCc1nn(-c2ccc(C(F)(F)F)cc2)nc1Cc1ccnc(C(F)(F)F)c1 [Compound 155] on field poppy (Papaver rhoeas)?
Out: 95

In: Subsequent entry: Cc1nn(-c2ccc(C(F)(F)F)c(F)c2)nc1Oc1ccnc(C(F)(F)F)c1 [Compound 148]
Out: 100

In: Same question, COc1nn(-c2ccc(C(F)(F)F)cc2)nc1Cc1ccnc(C(F)(F)F)c1 [Compound 15] this time
Out: 100

---

Tested on: barnyardgrass (Echinochloa crus-galli)
Test: Test A pre-/postemergence: barnyardgrass
Assay type: in vivo
Settings: Preemergence, 125 g ai/ha; 0 to 100 scale (0 no effect, 100 complete control)
recordedMetric: Plant response rating, Barnyardgrass

Examples from the recorded data:
compound="Cc1nn(-c2cccc(C(F)(F)F)c2)nc1Oc1cc(C(F)(F)F)nn1C [Compound 64]" recordedmetric="Plant response rating, Barnyardgrass" datavalue=0
compound="Cc1nn(-c2ccc(C(F)(F)F)cc2)nc1Cn1cc(C(F)(F)F)cn1 [Compound 32]" recordedmetric="Plant response rating, Barnyardgrass" datavalue=0
compound="Cc1nn(-c2ccnc(C(F)(F)F)c2)nc1C(=O)c1cccc(C(F)(F)F)c1 [Compound 49]" recordedmetric="Plant response rating, Barnyardgrass" datavalue=10

In: Data request, read-out Plant response rating, Barnyardgrass, for FC(F)Oc1nn(-c2ccc(C(F)(F)F)cc2)nc1Cc1ccnc(C(F)(F)F)c1 [Compound 26]
Out: 90

In: // next record COc1nn(-c2ccc(C(F)(F)F)cc2)nc1Cn1cnc(C(F)(F)F)n1 [Compound 18]
Out: 20

In: Record: Cc1nn(-c2ccc(C(F)(F)F)cc2)nc1Oc1cccc(Cl)c1 [Compound 84]
Out: 0

In: // query: COc1nn(-c2ccc(C(F)(F)F)cc2)nc1C(C)(O)c1ccnc(C(F)(F)F)c1 (centres unmarked) [Compound 79]
Out: 0

In: Check Cc1nn(-c2ccc(C(F)F)cn2)nc1C(=O)c1cccc(C(F)(F)F)c1 [Compound 68] too.
Out: 0

---

Plant response rating, Bermudagrass: recorded values
System: bermudagrass (Cynodon dactylon)
Experiment: Test C pre-/postemergence: bermudagrass
Assay type: in vivo
Settings: Preemergence, 125 g ai/ha; scale 0 to 100, 0 no effect, 100 complete control
The answer should be a number; do not append a unit.

smi=Fc1ccc(-n2nc(Cc3ccnc(C(F)(F)F)c3)c(OC(F)F)n2)cc1 systemtested="bermudagrass (Cynodon dactylon)" datavalue=98
smi=FC(F)(F)COc1nn(-c2ccc(C(F)(F)F)cc2)nc1Cc1ccnc(C(F)(F)F)c1 systemtested="bermudagrass (Cynodon dactylon)" datavalue=100
smi=Cc1nn(-c2ccc(C(F)(F)F)c(F)c2)nc1Oc1ccnc(C(F)(F)F)c1 systemtested="bermudagrass (Cynodon dactylon)" datavalue=100

In: Entry FC(F)Oc1nn(-c2ccc(C(F)(F)F)cc2)nc1Cc1ccnc(C(F)(F)F)c1 : reported Plant response rating, Bermudagrass = ?
Out: 100
